Reference source: patent US20240199746A1

System under test: T1, Ax1 protein, extracellular domain (human, UniProt P30530 26-451)
T1 construct: extracellular domain; also called Axl; Ark
T1 sequence (looked up): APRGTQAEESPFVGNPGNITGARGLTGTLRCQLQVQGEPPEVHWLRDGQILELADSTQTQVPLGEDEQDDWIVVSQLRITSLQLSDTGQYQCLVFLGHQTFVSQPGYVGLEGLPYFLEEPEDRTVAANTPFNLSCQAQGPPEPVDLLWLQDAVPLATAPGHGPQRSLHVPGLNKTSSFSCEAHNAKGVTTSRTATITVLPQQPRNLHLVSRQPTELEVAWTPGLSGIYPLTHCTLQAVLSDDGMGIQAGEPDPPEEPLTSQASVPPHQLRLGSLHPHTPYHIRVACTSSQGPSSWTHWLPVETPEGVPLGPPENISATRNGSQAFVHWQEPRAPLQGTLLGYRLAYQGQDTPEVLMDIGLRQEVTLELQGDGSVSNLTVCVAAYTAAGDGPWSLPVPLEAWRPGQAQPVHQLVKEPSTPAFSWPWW
Assay explanation: ELISA, mutant diluted 1:3
Please use 1 (yes) for Affinity ELISA CPE mutant ratio (1:3, pH 6.0/7.4) under 2 and 0 (no) for everything else, ties included.

Binder	Class name
LC-V029D (antibody, V domains shown, CPE single point mutant) VH: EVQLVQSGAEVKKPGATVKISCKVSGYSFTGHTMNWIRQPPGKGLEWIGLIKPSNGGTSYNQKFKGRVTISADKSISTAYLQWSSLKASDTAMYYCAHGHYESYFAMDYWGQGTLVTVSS VL: DIQMTQSPSSLSASVGDRVTITCKASQDDSSAVAWYQQKPGQAPRLLIYWASTRHTGVPSRFSGSGSGTEFTLTISSLQPDDFATYYCQEHFSTPLTFGQGTKVEIK	0 (no)
HC-F105V (antibody, V domains shown, CPE single point mutant) VH: EVQLVQSGAEVKKPGATVKISCKVSGYSFTGHTMNWIRQPPGKGLEWIGLIKPSNGGTSYNQKFKGRVTISADKSISTAYLQWSSLKASDTAMYYCAHGHYESYVAMDYWGQGTLVTVSS VL: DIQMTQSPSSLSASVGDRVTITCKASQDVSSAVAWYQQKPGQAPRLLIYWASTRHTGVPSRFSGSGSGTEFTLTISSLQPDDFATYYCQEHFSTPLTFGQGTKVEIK	0 (no)
HC-P053N (antibody, V domains shown, CPE single point mutant) VH: EVQLVQSGAEVKKPGATVKISCKVSGYSFTGHTMNWIRQPPGKGLEWIGLIKNSNGGTSYNQKFKGRVTISADKSISTAYLQWSSLKASDTAMYYCAHGHYESYFAMDYWGQGTLVTVSS VL: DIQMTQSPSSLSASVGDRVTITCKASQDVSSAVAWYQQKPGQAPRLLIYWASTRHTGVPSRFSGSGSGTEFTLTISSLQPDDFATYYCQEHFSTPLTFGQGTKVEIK	1 (yes)
HC-A106G (antibody, V domains shown, CPE single point mutant) VH: EVQLVQSGAEVKKPGATVKISCKVSGYSFTGHTMNWIRQPPGKGLEWIGLIKPSNGGTSYNQKFKGRVTISADKSISTAYLQWSSLKASDTAMYYCAHGHYESYFGMDYWGQGTLVTVSS VL: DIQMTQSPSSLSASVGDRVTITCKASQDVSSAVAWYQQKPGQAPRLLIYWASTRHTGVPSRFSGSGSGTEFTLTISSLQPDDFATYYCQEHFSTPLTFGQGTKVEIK	1 (yes)
LC-T097I (antibody, V domains shown, CPE single point mutant) VH: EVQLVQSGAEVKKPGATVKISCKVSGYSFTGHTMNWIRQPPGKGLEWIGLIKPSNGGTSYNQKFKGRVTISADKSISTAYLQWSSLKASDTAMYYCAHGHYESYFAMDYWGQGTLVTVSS VL: DIQMTQSPSSLSASVGDRVTITCKASQDVSSAVAWYQQKPGQAPRLLIYWASTRHTGVPSRFSGSGSGTEFTLTISSLQPDDFATYYCQEHFSTPLIFGQGTKVEIK	0 (no)
LC-V029W (antibody, V domains shown, CPE single point mutant) VH: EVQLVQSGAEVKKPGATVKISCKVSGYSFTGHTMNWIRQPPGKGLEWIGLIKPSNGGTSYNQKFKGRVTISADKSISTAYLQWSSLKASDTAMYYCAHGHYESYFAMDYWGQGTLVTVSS VL: DIQMTQSPSSLSASVGDRVTITCKASQDWSSAVAWYQQKPGQAPRLLIYWASTRHTGVPSRFSGSGSGTEFTLTISSLQPDDFATYYCQEHFSTPLTFGQGTKVEIK	0 (no)
HC-M107E (antibody, V domains shown, CPE single point mutant) VH: EVQLVQSGAEVKKPGATVKISCKVSGYSFTGHTMNWIRQPPGKGLEWIGLIKPSNGGTSYNQKFKGRVTISADKSISTAYLQWSSLKASDTAMYYCAHGHYESYFAEDYWGQGTLVTVSS VL: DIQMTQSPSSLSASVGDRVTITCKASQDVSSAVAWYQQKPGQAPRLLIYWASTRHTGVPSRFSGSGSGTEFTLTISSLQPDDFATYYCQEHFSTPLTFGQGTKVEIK	0 (no)
HC-H100P (antibody, V domains shown, CPE single point mutant) VH: EVQLVQSGAEVKKPGATVKISCKVSGYSFTGHTMNWIRQPPGKGLEWIGLIKPSNGGTSYNQKFKGRVTISADKSISTAYLQWSSLKASDTAMYYCAHGPYESYFAMDYWGQGTLVTVSS VL: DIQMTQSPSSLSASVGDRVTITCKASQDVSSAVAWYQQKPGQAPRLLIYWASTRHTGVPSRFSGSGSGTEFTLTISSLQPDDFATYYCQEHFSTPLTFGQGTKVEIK	0 (no)
LC-V029N (antibody, V domains shown, CPE single point mutant) VH: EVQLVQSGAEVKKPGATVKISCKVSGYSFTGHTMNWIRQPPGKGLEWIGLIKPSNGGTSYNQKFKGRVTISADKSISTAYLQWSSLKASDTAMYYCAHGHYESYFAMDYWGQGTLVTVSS VL: DIQMTQSPSSLSASVGDRVTITCKASQDNSSAVAWYQQKPGQAPRLLIYWASTRHTGVPSRFSGSGSGTEFTLTISSLQPDDFATYYCQEHFSTPLTFGQGTKVEIK	0 (no)
LC-H091L (antibody, V domains shown, CPE single point mutant) VH: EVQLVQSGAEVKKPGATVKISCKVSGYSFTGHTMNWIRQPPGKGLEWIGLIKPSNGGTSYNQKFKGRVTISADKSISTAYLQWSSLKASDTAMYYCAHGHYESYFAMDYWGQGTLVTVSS VL: DIQMTQSPSSLSASVGDRVTITCKASQDVSSAVAWYQQKPGQAPRLLIYWASTRHTGVPSRFSGSGSGTEFTLTISSLQPDDFATYYCQELFSTPLTFGQGTKVEIK	0 (no)
LC-V029G (antibody, V domains shown, CPE single point mutant) VH: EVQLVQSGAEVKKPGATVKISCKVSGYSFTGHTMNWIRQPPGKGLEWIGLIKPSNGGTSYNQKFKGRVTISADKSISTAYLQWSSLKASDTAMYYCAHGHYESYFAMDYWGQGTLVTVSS VL: DIQMTQSPSSLSASVGDRVTITCKASQDGSSAVAWYQQKPGQAPRLLIYWASTRHTGVPSRFSGSGSGTEFTLTISSLQPDDFATYYCQEHFSTPLTFGQGTKVEIK	1 (yes)
